// data source = PubChem BioAssay (NCI)

# Tested on: OVCAR-3 ovarian
# test-method-notes: NCI tumour cell line growth inhibition, 48 h
experimental-readout: TGI

                                   compound  measured_target  recorded_measurement
0  O=C(CCC(=O)N/N=C/c1ccccc1O)N/N=C/c1ccccc1O  OVCAR-3 ovarian              > 100 µM
1          CCOC(=O)C1=C(O)c2ccccc2C(=O)C1=O  OVCAR-3 ovarian              > 100 µM
2  CCCCCC(=O)OCC(=O)O[C@@H]1C[C@]2(C(C)C)O[C@@]1(C)[C@@H]1CC[C@@H](C)[C@H]1[C@@H]2OC(=O)/C=C/c1ccccc1  OVCAR-3 ovarian             > 67.3 µM
3      Cc1cnc2[nH]c(-c3ccc(F)cc3)cc(=O)c2c1  OVCAR-3 ovarian             > 78.3 µM
4   O=C1OC(c2ccccc2)=N/C1=C\c1c(O)cc(O)cc1O  OVCAR-3 ovarian              > 100 µM

Record TGI for all entries; do not skip any.
1. CCn1c(-c2nonc2N)nc2c(C#CC(C)(C)O)nc(O[C@@H](CN)c3ccccc3)cc21
2. O=C(/C=C/c1c(O)ccc2ccccc12)c1cccc2ccccc12
3. CN(C)CCOc1nc2c3cccnc3cc(-c3cccc(Cl)c3)c2c2ncccc12
4. COc1ccc(C2CC(=O)Oc3ccccc3O2)cc1 (stereo not given)
5. N#CC1=C(C#N)/C(=C(\C#N)C(C#N)C#N)N=C1N

0.314 µM
> 100 µM
4.19 µM
> 100 µM
> 100 µM

----------
I'd appreciate it if you could supply TGI values for the items below.
# Tested on: SF-268 CNS
# test-method-notes: NCI tumour cell line growth inhibition, 48 h
Numbers only, in µM.

Record TGI for all entries; do not skip any.
1. Cc1c2ccnc(-c3ccccc3)c2cc2c1[nH]c1ccccc12
2. CN1CC2=C(NC(=S)NC2c2ccc(Cl)cc2)/C(=C/c2ccc(Cl)cc2)C1 (stereo not given)
3. C=C1CC2(OC1=O)c1ccccc1C=Cc1ccccc12
4. Cc1[nH]nc2c1N=C(c1ccccc1F)c1cc(C#N)ccc1N2

[32.9, 50.4, 17.4, 5.8]

----------
# Test system: M14 melanoma
# test-method-notes: NCI tumour cell line growth inhibition, 48 h
experimental-readout: TGI

>>> print(df.to_string())
                                   molecule  measured_target  experimental_readout  recorded_measurement
0  c1ccc2cc(OCC3CO3)c(OCC3CO3)cc2c1 (configuration not stated)     M14 melanoma                   TGI               13.3 µM
1  C[C@]12CC(c3ccccc3O1)C(C#N)C(=O)N2 (some centres not stated)     M14 melanoma                   TGI              > 100 µM
2  c1ccc2[nH]c3[nH]c4[nH]c5ccccc5[nH]c4[nH]c3[nH]c2c1     M14 melanoma                   TGI              > 100 µM
3  CCOC(=O)c1cc2cc(NC(=O)c3cc4cc([N+](=O)[O-])ccc4n3C)ccc2n1C     M14 melanoma                   TGI              > 100 µM
4                      Cc1nccc2c1cnc1ccnn12     M14 melanoma                   TGI              > 100 µM

Record TGI for all entries; do not skip any.
1. Cc1ccc(S(=O)(=O)NC(CCC(=O)Nc2ccccc2)C(=O)Nc2ccccc2)cc1 (configuration not stated)
2. COc1cccc(Cn2cc3c(c2)-c2oncc2CC3)c1
3. Cc1cc(S(=O)(=O)Nc2nc(N)nc(N3CCOCC3)n2)c(SCC(=O)O)cc1Cl
4. O=c1n(-c2ccccc2)c(=O)n2n1C1CCC2CC1

1. 3.62 µM
2. > 48.2 µM
3. > 10 µM
4. > 100 µM

----------
# Test system: SK-MEL-2 melanoma
# test-method-notes: NCI tumour cell line growth inhibition, 48 h
experimental-readout: TGI (µM)
Answers are plain numbers, in µM.

Consider the worked cases shown below.
molecule	measured-target	units	TGI
COc1cc(-c2nn(C(=O)NS(=O)(=O)c3ccc(C)cc3)cc2-c2ccncc2)ccc1Cl	SK-MEL-2 melanoma	µM	15.4
COc1ccc(/C(Cl)=C(\C=O)c2ccc(Br)cc2)cc1OC	SK-MEL-2 melanoma	µM	74.4
N#CC1=C(C#N)/C(=C(\C#N)C(C#N)C#N)N=C1N	SK-MEL-2 melanoma	µM	31.6

Record TGI for all entries; do not skip any.
1. CC(=O)OCC1OC(n2c3c(c(-c4ccc(Cl)cc4)c(C#N)c2=S)C(=O)CC(C)(C)C3)C(OC(C)=O)C(OC(C)=O)C1OC(C)=O (stereo unspecified)
2. Cc1ccccc1-n1c(/C=C\c2ccccn2)nc2ccccc2c1=O
3. CC1(C)CCCCCCCCCC(C)(CCCO)C1=O (stereo unspecified)

46.4
38.5
28.9

Record TGI for all entries; do not skip any.
1. O=[N+]([O-])c1cc(Cl)cc2c1nc(NCCO)c1ccccc12
2. O=C1/C(=C/c2ccc([N+](=O)[O-])s2)Oc2ccccc21
3. Cc1[nH]nc2c1N=C(c1ccccc1F)c1cc(C#N)ccc1N2
4. CN1CCN(Cc2ccc(NC(=O)c3[nH]ncc3Nc3ncnc4sccc34)cc2)CC1
5. Oc1ccc(Br)cc1/C=N/NC(=S)NC12CC3CC(CC(C3)C1)C2
6. CCN(CC)Cc1ccc2cccnc2c1O

[43.8, 3.04, 8.81, 2.26, 4.59, 80.1]

----------
# Test system: HCT-15 colon
# test-method-notes: NCI tumour cell line growth inhibition, 48 h
I'd appreciate it if you could supply TGI values for the items below.

molecule	TGI
CC(C)CC(CNC(Cc1ccc(Cl)cc1)C(N)=O)NC(=O)C(Cc1cnc[nH]1)NC(=O)CNC(=O)C(NC(=O)C(C)NC(=O)C(Cc1c[nH]c2ccccc12)NC(=O)C(CCC(=O)O)NC(=O)C(N)Cc1ccccc1)C(C)C (centres undefined)	> 133 µM

Record TGI for all entries; do not skip any.
1. C[C@H]1CCC/C=C/[C@@H]2C[C@H](O)C[C@H]2[C@H](O)[C@@H](S(=O)CCN)CC(=O)O1 (some centres undefined)
2. CCCCSC1=N/C(=C\c2ccco2)C(=O)N1
3. Cc1cccc2c1Oc1cc(Cl)ccc1C2NC(=O)CN(C)C (centres undefined)
4. COC(C/C(=C/CO[Si](C(C)C)(C(C)C)C(C)C)C(=O)Nc1ccccc1I)OC
5. CCN(CC)CCCCCOc1cc(O)c2c(=O)cc(-c3ccccc3)oc2c1
6. COc1cc(/C=C2/SC(c3ccccc3)N(c3ccc(Cl)cc3)C2=O)cc(OC)c1OC (centres undefined)
7. COC(=O)/C(C#N)=C1\NC(=O)CC(c2ccccc2)C1C#N (centres undefined)
8. O=[N+]([O-])c1cc(Cl)cc2c1nc(NCCO)c1ccccc12

10.8 µM
> 100 µM
> 100 µM
71.1 µM
3.76 µM
> 100 µM
> 100 µM
> 100 µM

----------
# Tested on: SK-MEL-28 melanoma
# test-method-notes: NCI tumour cell line growth inhibition, 48 h
experimental-readout: GI50

Consider the worked cases shown below.
In [3]: df
Out[3]:
                                   compound     measured_target  experimental_readout  recorded_measurement
0  COc1ccc(NC(=O)c2sc3nc(C)c(C(O)c4ccc(OC)cc4)cc3c2N)cc1 (centres undefined)  SK-MEL-28 melanoma                  GI50               6.22 µM
1  C=CC[Se]C(=O)Cc1c(C)n(C(=O)c2ccc(Cl)cc2)c2ccc(OC)cc12  SK-MEL-28 melanoma                  GI50               1.69 µM
2  COC(=O)c1c2c(c(C)[n+]([O-])c1C)C(=O)C(NCc1cccc(OC)c1)=CC2=O  SK-MEL-28 melanoma                  GI50                4.6 µM
3  O=C1/C(=C/c2ccc([N+](=O)[O-])s2)Oc2ccccc21  SK-MEL-28 melanoma                  GI50               1.25 µM
4  COC(=O)[C@@H](Cc1c[nH]c2ccccc12)NC(=O)/C=C/c1ccccc1  SK-MEL-28 melanoma                  GI50               4.43 µM
5   N=C(N)c1ccc(-c2ccc(-c3ccc(Cl)cn3)s2)cc1  SK-MEL-28 melanoma                  GI50               1.67 µM
6  Cc1ccccc1-n1c(/C=C\c2ccccn2)nc2ccccc2c1=O  SK-MEL-28 melanoma                  GI50               18.4 µM
7   Cc1c2ncccc2nc2[nH]c3ccc(OCCN(C)C)cc3c12  SK-MEL-28 melanoma                  GI50                4.4 µM

Switching to the query record.
So for `CC[C@H](Nc1nc(N)nc(N)c1Cl)c1nc2cccc(NCc3ccc(C(=O)NO)cc3)c2c(=O)n1-c1ccccc1` , the logged GI50 turned out to be 1.55 µM
